System: Calu-3
Test: cell viability relative to DMSO; higher = less toxic
Conditions: 72 h; 100 nM
parameter: cell viability (%)
Give the quantity in %, number only.

Examples with answers:
Look up and report measured cell viability (Calu-3) for the following compound: CC1/C=C/C=C/C=C/C=C/C=C/C=C/C=C/C(OC2O[C@H](C)[C@@H](O)[C@H](N)[C@@H]2O)CC(O)C(C(=O)O)C(O)CC(=O)CC(O)CC(O)CC(O)CC(=O)CCCC(=O)CC(=O)OC1C(C)CC(C)C(O)CC(=O)c1ccc(N)cc1 (some centres not stated)
102

Look up and report measured cell viability (Calu-3) for the following compound: CN1c2c([nH]c(N)nc2=O)NC[C@@H]1CNc1ccc(C(=O)N[C@@H](CCC(=O)O)C(=O)O)cc1
105

Look up and report measured cell viability (Calu-3) for the following compound: Cc1ncc(COP(=O)([O-])[O-])c(CN(CCN(CC(=O)O)Cc2c(COP(=O)([O-])O)cnc(C)c2O)CC(=O)O)c1O.[Mn].[Na+].[Na+].[Na+] [Mangafodipir (trisodium)]
104

Look up and report measured cell viability (Calu-3) for the following compound: COC(=O)[C@H](CC(C)C)NC(=O)[C@@H](N)CC(C)C
86.9

Look up and report measured cell viability (Calu-3) for the following compound: CC(=O)SC[C@@H](C)C(=O)N1CCC[C@H]1C(=O)N[C@@H](Cc1ccccc1)C(=O)O
96.9

---
Look up and report measured cell viability (Calu-3) for the following compound: C[C@H](Cc1cc2c(c(C(N)=O)c1)N(CCCO)CC2)NCCOc1ccccc1OCC(F)(F)F
97

Look up and report measured cell viability (Calu-3) for the following compound: CCCn1c(=O)c2[nH]cnc2n(-c2ccc(Cl)cc2)c1=O
103

Look up and report measured cell viability (Calu-3) for the following compound: OC[C@H]1O[C@@H](OCCc2ccc(O)cc2)[C@H](O)[C@@H](O)[C@@H]1O [salidroside]
102

Look up and report measured cell viability (Calu-3) for the following compound: CC1(C)CCC(C)(C)c2cc(C(=O)Nc3ccc(C(=O)O)cc3)ccc21
71.6

Look up and report measured cell viability (Calu-3) for the following compound: NC(=O)Nc1sc(-c2ccc(F)cc2)cc1C(N)=O
97.7

Look up and report measured cell viability (Calu-3) for the following compound: CC(C)(C)NC(=O)N[C@H](C(=O)N1C[C@H]2[C@@H]([C@H]1C(=O)NC(CC1CCC1)C(=O)C(N)=O)C2(C)C)C(C)(C)C (some centres not stated)
95.7

Look up and report measured cell viability (Calu-3) for the following compound: O=C(Nc1nc2ccc(NC(=O)C34CC5CC(CC(C5)C3)C4)cc2s1)c1ccccc1
91.8

Look up and report measured cell viability (Calu-3) for the following compound: O=C(O)c1ccccc1C(=O)Nc1ccc(S(=O)(=O)Nc2nccs2)cc1
106

Look up and report measured cell viability (Calu-3) for the following compound: O=c1c(O)c(-c2cc(O)c(O)c(O)c2)oc2cc(O)cc(O)c12
96

Look up and report measured cell viability (Calu-3) for the following compound: CC(=O)OCC(=O)[C@@]1(O)CC[C@H]2[C@@H]3CCC4=CC(=O)CC[C@]4(C)[C@H]3C(=O)C[C@@]21C [cortisone-acetate]
98.9

Look up and report measured cell viability (Calu-3) for the following compound: c1ccc2c(-c3cnn4cc(-c5ccc(N6CCNCC6)cc5)cnc34)ccnc2c1
112

Look up and report measured cell viability (Calu-3) for the following compound: Cc1c(C(=O)NN2CCOCC2)nn(-c2ccc(Cl)cc2Cl)c1-c1ccc(I)cc1
104

Look up and report measured cell viability (Calu-3) for the following compound: Cc1cc(C)c(Nc2ccnc(Nc3ccc(C#N)cc3)n2)c(C)c1
97.1

Look up and report measured cell viability (Calu-3) for the following compound: C=C1CC[C@@H]2[C@](C)(CO)[C@H](O)CC[C@@]2(C)[C@@H]1C/C=C1/C(=O)OC[C@H]1O [andrographolide]
105

Look up and report measured cell viability (Calu-3) for the following compound: NC(CO)(CO)CO
103

Look up and report measured cell viability (Calu-3) for the following compound: O=C1C(O)=C(O)C(=O)C(O)=C1O
98.1
